Test system: HaCaT
Experiment: Cytotoxicity against human HaCaT cells at 1.56 to 6.25 uM after 24 hrs by MTT assay
Assay type: cell-based
Where a SMILES comes first, the peptide text is derived from it. [ ]: non-standard residue; d: D form.

molecule: CC[C@H](C)[C@H](NC(=O)[C@H](CCCNC(=N)N)NC(=O)[C@@H]1CCCN1C(=O)[C@@H](CC(C)C)NC(=O)[C@H](Cc1ccccc1)NC(=O)[C@H](CCCCN)NC(=O)[C@H](CO)NC(=O)[C@H](Cc1ccccc1)NC(=O)[C@H](Cc1c[nH]c2ccccc12)NC(=O)[C@@H]1CCCN1C(=O)[C@@H](NC(=O)[C@@H](N)Cc1ccccc1)C(C)C)C(=O)N[C@@H](CC(C)C)C(N)=O (H-FVPWFSKF[dL]PRIL-NH2)
Activity: Non-Toxic
--
molecule: CCCC[C@H](NC(=O)[C@@H](CC(C)C)NC(=O)[C@H](Cc1ccccc1)NC(=O)[C@H](CCCCN)NC(=O)[C@H](CO)NC(=O)[C@H](Cc1ccccc1)NC(=O)[C@H](Cc1c[nH]c2ccccc12)NC(=O)[C@@H]1CCCN1C(=O)[C@@H](NC(=O)[C@@H](N)Cc1ccccc1)C(C)C)C(=O)N[C@@H](CCCNC(=N)N)C(=O)NC(C(=O)N[C@@H](CC(C)C)C(N)=O)[C@@H](C)CC (single isomer, unassigned)
Activity: Non-Toxic
--
molecule: CC[C@H](C)[C@H](NC(=O)[C@H](CCCNC(=N)N)NC(=O)CNC(=O)[C@@H](CC(C)C)NC(=O)[C@H](Cc1ccccc1)NC(=O)[C@H](CCCCN)NC(=O)[C@H](CO)NC(=O)[C@H](Cc1ccccc1)NC(=O)[C@H](Cc1c[nH]c2ccccc12)NC(=O)[C@@H]1CCCN1C(=O)[C@@H](NC(=O)[C@@H](N)Cc1ccccc1)C(C)C)C(=O)N[C@@H](CC(C)C)C(N)=O (H-FVPWFSKF[dL]GRIL-NH2)
Activity: Non-Toxic
